EXPERIMENTAL_PROTOCOL: Standard protocol for determination of kcat and KM (continuous spectrophotometric assay, Acetyl CoA hydrolysis at 235 nm)
Type: biochemical
DETAILS: purified protein; about 23° C.; 20 mM HEPES pH 6.8, 10% ethylene glycol, 0.2 mM acetyl CoA
Provide the reported log10 Kcat of each item.
Parameter value (number): base-10 log of Kcat in min⁻¹.

Asked: Can you share its log10 Kcat? I mean this molecule: SEQ ID NO: 288: GAT polypeptide (protein, 12_3F1, GAT polypeptide) MIEVKPINAEDTYEIRHRILRPNQPLEACKYETDLLGGTFHLGGYYRGKLISIASFHQAEHPELEGQKQYQLRGMATLEGYREQKAGSTLIRHAEELLRKKGADLLWCNARTSASGYYKKLGFSEQGGVYDIPPVGPHILMYKKLT
Given back: 1.64

Asked: And the next one, SEQ ID NO: 440: GAT polypeptide (protein, 0_5B3, GAT polypeptide) MLEVKPINAEDTYELRHRILRPNQPIEACMYETDLLRGAFHLGGFYRGKLISIASFHQAEHSELQGQKQYQLRGMATLEGYRDQKAGSSLIKHAEQLLRKRGADLLWCNARTSASGYYKKLGFSEQGEVFDTPPVGPHILMYKRIT ?
Given back: 2.16

Asked: // next record SEQ ID NO: 304: GAT polypeptide (protein, 13_8G6, GAT polypeptide) MIEVKPINAEDTYEIRHRILRPNQPLEACKYETDSLGGTFHLGGYYRGKLISIASFNQAEHPELEGQKQYQLRGMATLEGYREQKAGSTLIRHAEELLRKKGADLLWCNARTSASGYYKKLGFSEQGGVYDIPPVGPHILMYKKLT
Given back: 1.53

Asked: Same for SEQ ID NO: 502: GAT polypeptide (protein, 6_1H4, GAT polypeptide) MLEVKPINAEDTYELRHKILRPNQPLEVCMYETDLLRGAFHLGGFYGGKLISIASFHQAEHSDLQGQKQYQLRGMATLEGYRDQKAGSTLIKHAEQILRKRGADMLWCNARTSASGYYKKLGFSEQGEVFETPPVGPHILMYKRLT
Given back: 1.93

Asked: Try SEQ ID NO: 329: GAT polypeptide (protein, 15_12A8, GAT polypeptide) MIEVKPINAEDTYEIRHRILRPNQPLEACKYETDLLGGTFHLGGYYRGKLISIASFHQAEHPELEGQKQYQLRGMATLEGYREQKAGSTLIRHAEALLRKKGADLLWCNARTSASGYYKKLGFSEQGEVYDIPPTGPHILMYKKLT next.
Given back: 1.89

Asked: Same question, SEQ ID NO: 404: GAT polypeptide (protein, 6_3H2, GAT polypeptide) MIEVKPINAEDTYEIRHRILRPNQPLEACMYETDLLGGTFHLGGYYRGKLISIASFHQAEHPELEGQKQYQLRGMATLEEYREQKAGSTLIRHAEELLRKKGADLLWCNARTSASGYYKKLGFSEQGEVYDIPPVGPHILMYKKLT this time
Given back: 1.76

Asked: Another molecule to check: SEQ ID NO: 496: GAT polypeptide (protein, 5_2F10, GAT polypeptide) MLEVKPINAEDTYELRHKILRPNQPIEVCMYETDLLRGAFHLGGFYGGKLISIASFHQAEHSDLQGQKQYQLRGMATLEGYRDQKAGSSLIRHAEQILRKRGADMLWCNARTSASGYYKKLGFSEQGEIFETPPVGPHILMYKRLT
Given back: 1.74

Asked: Field entry: SEQ ID NO: 382: GAT polypeptide (protein, 6_15G7, GAT polypeptide) MIEVKPINAEDTYEIRHRILRPNQPLEACKYETDLLGGTFHLGGYYRGKLISIASFHQAEHSELEGQKQYQLRGMATLEGYREQKAGSTLIRHAEELLRKKGADLLWCNARTSASGYYKKLGFSEQGEVYDIPPVGPHILMYKKLT
Given back: 1.68

Asked: Another molecule to look at: SEQ ID NO: 373: GAT polypeptide (protein, 4B_1G4, GAT polypeptide) MIEVKPINAEDTYEIRHRILRPNQPLEACKYETDLLGGAFHLGGYYRGKLISIASFHQSEHPELEGQKQYQLRGMATLEGYRELKAGSTLIRHAEELLRKKGADLLWCNARISASGYYKKLGFSEQGEVYDIPPIGPHILMYKKLT
Given back: 0.57

Asked: Item: SEQ ID NO: 413: GAT polypeptide (protein, 6_9G11, GAT polypeptide) MIEVKPINAEDTYEIRHRILRPNQPLEACKYETDLLGGTLHLGGYYRGKLISIASFHQAEHSELEGQKQYQLRGMATLEGYREQKAGSTLIRHAEELLRKKGADLLWCNARTSASGYYKKLGFSEQGEVYDIPPVGPHILMYKKLT
Given back: 1.89

Asked: SEQ ID NO: 374: GAT polypeptide (protein, 4B_21C6, GAT polypeptide) MIEVKPINAEDTYEIRHRILRPNQPLEACMYETDLLGGTFHLGGYYRGKLISIASFHQAEHSELEGQKQYQLRGMATLEEYREQKAGSTLIRHAEELLRKKGADLLWCNARISASGYYKKLGFSEQGGVYDIPPIGPHILMYKKLT , same question.
Given back: 1.07

Asked: Do the same for SEQ ID NO: 292: GAT polypeptide (protein, 12_6F9, GAT polypeptide) MIEVKPINAEDTYEIRHRILRPNQPLEACKYETDLLGGTFHLGGYYRGKLISIASFHQAEHPELEGQKQYQLRGMATLEGYREQKAGSTLIRHAEELLRKKGADLLWCNARTSASGYYKKLGFSEQGEVYDIPPTGPHILMYKKLT please
Given back: 1.95

src = patent US8008547B2
